Taken from the supplement of paper PMC9112550.

System: Escherichia coli TOP10;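 further: peptides expressed intracellularly from a pBAD plasmid library in pooled LB shake-flask culture, induced with 0.3% L-arabinose, DNA abundance read by NGS, three biological replicates, DESeq2 with apeglm shrinkage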
assay overview: shrunken log2 fold change of peptide-encoding DNA abundance (4.5 h post-induction vs induction); higher = less antimicrobial activity (less host growth inhibition)
experimental context: time post-induction: 4.5 h; library: site-saturation at positions 5, 18, 19, 20
readout name: shrunken log2 fold change

[[record]]
seq = "RRIRFRPPRLPRPRPRPHFFPRP"
value_reported = -0.053

[[record]]
seq = "RRIRHRPPRLPRPRPRPIENPRP"
value_reported = -0.143

[[record]]
seq = "RRIRPRPPRLPRPRPRPPHLPRP"
value_reported = 0.024

[[record]]
seq = "RRIRTRPPRLPRPRPRPSTIPRP"
value_reported = -0.386

[[record]]
seq = "RRIRKRPPRLPRPRPRPPVTPRP"
value_reported = 0.39

[[record]]
seq = "RRIRYRPPRLPRPRPRPVDVPRP"
value_reported = -0.359

[[record]]
seq = "RRIRKRPPRLPRPRPRPPAVPRP"
value_reported = 0.847

[[record]]
seq = "RRIRIRPPRLPRPRPRPHALPRP"
value_reported = -0.127

[[record]]
seq = "RRIRYRPPRLPRPRPRPGCLPRP"
value_reported = 1.79

[[record]]
seq = "RRIRHRPPRLPRPRPRPNIRPRP"
value_reported = 0.0598

[[record]]
seq = "RRIRQRPPRLPRPRPRPNAGPRP"
value_reported = 0.0853

[[record]]
seq = "RRIRRRPPRLPRPRPRPWLTPRP"
value_reported = -0.245

[[record]]
seq = "RRIRCRPPRLPRPRPRPEFMPRP"
value_reported = 0.118

[[record]]
seq = "RRIRDRPPRLPRPRPRPKLRPRP"
value_reported = -0.0184

[[record]]
seq = "RRIRGRPPRLPRPRPRPTRCPRP"
value_reported = 0.527

